TARGET DESC: ALDOA (Homo sapiens)
Sequence (P04075 2-364): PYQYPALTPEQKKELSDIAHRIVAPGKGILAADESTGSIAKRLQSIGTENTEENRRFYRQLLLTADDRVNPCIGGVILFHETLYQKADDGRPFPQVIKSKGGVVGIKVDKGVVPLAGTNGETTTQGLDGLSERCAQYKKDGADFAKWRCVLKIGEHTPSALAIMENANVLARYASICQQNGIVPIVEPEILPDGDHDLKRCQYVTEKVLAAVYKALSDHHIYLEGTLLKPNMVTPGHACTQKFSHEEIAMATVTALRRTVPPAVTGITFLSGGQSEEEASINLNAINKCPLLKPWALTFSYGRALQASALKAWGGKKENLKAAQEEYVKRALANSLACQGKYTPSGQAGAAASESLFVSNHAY
METRIC NAME: IC50

Prompt: Provide value of IC50 for this record tested with ALDOA (Homo sapiens): `CCCCCCCCCCCCCCCCn1cc[n+](Cc2c(Cl)cccc2Cl)c1C`
Completion: ~50 µM
